test-target: S. pyogenes SKKanGAS, kanamycin survival, BacTiterGlo, 6 h
test-summary: S. pyogenes SKKanGAS kanamycin growth inhibitors – SKKanGAS strain, luminescence, dose confirmation, streptokinase promoter inhibitor project, dose response (AID 1902);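 note: lower survival reflects blocked streptokinase promoter driving kanamycin resistance gene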
Activity calls are given as the source filed them.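 Rule for the calls: active = EC50 no more than a set limit of log units above the highest dose; inactive = the rest.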
Labels: 1 for active, 0 for inactive

| molecule | test-target | assigned-class |
| --- | --- | --- |
| Cn1c(-c2cc(Br)ccc2O)n[nH]c1=S | S. pyogenes SKKanGAS, kanamycin survival, BacTiterGlo, 6 h | 1 |
| CC1CC(C)CN(c2ncc3c(n2)CC(c2ccccc2Cl)CC3=O)C1 (stereo not given) | S. pyogenes SKKanGAS, kanamycin survival, BacTiterGlo, 6 h | 1 |
| C/C(N)=C(/C#N)C(=O)CSc1nc2scc(-c3ccc(F)cc3)c2c(=O)n1C | S. pyogenes SKKanGAS, kanamycin survival, BacTiterGlo, 6 h | 1 |
| Cc1ccc(-c2cc(-c3ccccc3Cl)[nH]n2)c(O)c1 | S. pyogenes SKKanGAS, kanamycin survival, BacTiterGlo, 6 h | 1 |
| Cc1cccc(CCNC(=O)CC2C(=O)NCCN2Cc2ccccc2C)n1 (stereo not given) | S. pyogenes SKKanGAS, kanamycin survival, BacTiterGlo, 6 h | 0 |

---

test-target: S. pyogenes SKKanGAS, kanamycin survival, BacTiterGlo, 6 h
test-summary: S. pyogenes SKKanGAS kanamycin growth inhibitors – SKKanGAS strain, luminescence, dose confirmation, streptokinase promoter inhibitor project, dose response (AID 1902);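 note: lower survival reflects blocked streptokinase promoter driving kanamycin resistance gene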
The source made the active and inactive calls.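 The calls were made as follows: active = EC50 no more than a set limit of log units above the highest dose; inactive = the rest.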
Labels: active, inactive

| molecule | test-target | assigned-class |
| --- | --- | --- |
| O=C(/C(=N\Nc1ccc([N+](=O)[O-])cc1)Sc1nnnn1-c1ccccc1)c1ccccc1 | S. pyogenes SKKanGAS, kanamycin survival, BacTiterGlo, 6 h | active |
| O=C1Nc2ccccc2S/C1=C/Nc1cccc(Cl)c1 | S. pyogenes SKKanGAS, kanamycin survival, BacTiterGlo, 6 h | active |
| CN1CC(c2ccc(Cl)c(Cl)c2)[C@@]2(COc3ccccc3C2=O)[C@@]12C(=O)Nc1ccccc12 (some centres undefined) | S. pyogenes SKKanGAS, kanamycin survival, BacTiterGlo, 6 h | active |
| CCC(NC(=S)NC1CCCCC1)c1ccc(C(C)C)cc1 (centres undefined) | S. pyogenes SKKanGAS, kanamycin survival, BacTiterGlo, 6 h | active |
| Cc1ccc(NC(=S)NC(=O)c2ccc(F)cc2)cc1S(=O)(=O)Nc1cccc(Cl)c1 | S. pyogenes SKKanGAS, kanamycin survival, BacTiterGlo, 6 h | active |
| O=c1c2cc(-c3ccccc3)sc2nc2n1CCC2 | S. pyogenes SKKanGAS, kanamycin survival, BacTiterGlo, 6 h | active |
| Clc1ccc(CO/N=C(\Cn2ccnc2)c2ccc(Cl)cc2Cl)c(Cl)c1 | S. pyogenes SKKanGAS, kanamycin survival, BacTiterGlo, 6 h | active |
| CCCCCCCCCCCCN1C(=O)CSC1c1cccnc1 (centres undefined) | S. pyogenes SKKanGAS, kanamycin survival, BacTiterGlo, 6 h | active |
| O=c1[nH]c2ccc(Cl)cc2c(-c2ccccc2)c1SC(=S)N1CCOCC1 | S. pyogenes SKKanGAS, kanamycin survival, BacTiterGlo, 6 h | active |
| CO[C@H]1C=CO[C@@]2(C)Oc3c(C)c(O)c4c(O)c(c5c(nc6cc(C)ccn65)c4c3C2=O)NC(=O)C(C)=CC=C[C@H](C)[C@H](O)[C@@H](C)[C@@H](O)[C@@H](C)[C@H](OC(C)=O)[C@@H]1C | S. pyogenes SKKanGAS, kanamycin survival, BacTiterGlo, 6 h | active |
| Cc1cc(C)nc(-n2nc(C)c(Sc3ccc(F)cc3)c2N)n1 | S. pyogenes SKKanGAS, kanamycin survival, BacTiterGlo, 6 h | inactive |
| Oc1ccc(/C=N/Nc2nc(N3CCCCCC3)nc(N3CCCCCC3)n2)c(O)c1 | S. pyogenes SKKanGAS, kanamycin survival, BacTiterGlo, 6 h | active |
| COc1cccc(-c2coc3cc4oc(=O)c(CCC(=O)O)c(C)c4cc23)c1 | S. pyogenes SKKanGAS, kanamycin survival, BacTiterGlo, 6 h | active |
| O=C(O)c1ccc(N=Nc2c(O)[nH]c3ccc(Br)cc23)cc1 | S. pyogenes SKKanGAS, kanamycin survival, BacTiterGlo, 6 h | active |
| CCOc1ccc(C(=O)N/N=C(\c2ccccc2)c2ccccn2)cc1 | S. pyogenes SKKanGAS, kanamycin survival, BacTiterGlo, 6 h | active |
| C/C(CC(=O)Nc1ccc(Cl)c(C(F)(F)F)c1)=N\NC(=O)c1cc2ccccc2cc1O | S. pyogenes SKKanGAS, kanamycin survival, BacTiterGlo, 6 h | active |
| CCCCC1CCC(c2nc(-c3ccccn3)no2)CC1 (centres undefined) | S. pyogenes SKKanGAS, kanamycin survival, BacTiterGlo, 6 h | active |
| S=c1[nH]nc(C2CCCCC2)n1/N=C/c1c(Cl)cccc1Cl | S. pyogenes SKKanGAS, kanamycin survival, BacTiterGlo, 6 h | active |
| CCc1ccc(OCC(=O)NC(NC(=S)Nc2ccc(C)cc2C)C(Cl)(Cl)Cl)cc1 (centres undefined) | S. pyogenes SKKanGAS, kanamycin survival, BacTiterGlo, 6 h | active |
| CC(C)c1ccc(-c2cc(C(=O)N3N=C(C(F)F)CC3(O)C(F)F)c3ccccc3n2)cc1 (centres undefined) | S. pyogenes SKKanGAS, kanamycin survival, BacTiterGlo, 6 h | active |
| CCn1c(NC(=O)c2cccc(Cn3cc(Cl)cn3)c2)nc2ccccc21 | S. pyogenes SKKanGAS, kanamycin survival, BacTiterGlo, 6 h | active |
| COc1ccc(CCN2C(=O)c3[nH]nc(-c4ccccc4O)c3C2c2cccc(Cl)c2)cc1 (centres undefined) | S. pyogenes SKKanGAS, kanamycin survival, BacTiterGlo, 6 h | active |
| CCCCCCCCCCOC(=O)Cn1c(COc2ccccc2OC)[n+](C)c2ccccc21 | S. pyogenes SKKanGAS, kanamycin survival, BacTiterGlo, 6 h | active |
| O=C1C=C(Nc2ccccc2)c2ccccc2C1=O | S. pyogenes SKKanGAS, kanamycin survival, BacTiterGlo, 6 h | active |
| O=C(NNC(=S)NC(=O)c1ccco1)c1ccc(NC(=O)c2ccccc2)cc1 | S. pyogenes SKKanGAS, kanamycin survival, BacTiterGlo, 6 h | active |
| O=C(c1ccc(F)cc1)c1cc2ccc(O)cc2oc1=O | S. pyogenes SKKanGAS, kanamycin survival, BacTiterGlo, 6 h | active |
| O=C(/C=C/c1ccccc1)c1cc(Br)ccc(=O)c1O | S. pyogenes SKKanGAS, kanamycin survival, BacTiterGlo, 6 h | active |
| COc1ccc(C(=O)NC(=S)NNC(=O)c2ccccc2O)cc1 | S. pyogenes SKKanGAS, kanamycin survival, BacTiterGlo, 6 h | active |
| C=C(C)COc1ccc(-c2n[nH]c(C)c2-c2ccc(Br)cc2)c(O)c1 | S. pyogenes SKKanGAS, kanamycin survival, BacTiterGlo, 6 h | active |
